The entries below pair compounds with pIC50 values for ALK tyrosine kinase receptor (Homo sapiens), as found in several publications.
pIC50: −log10 of the molar value.

Illustrative cases are given below, each with its answer.
1) O=C(NCC1CCCO1)c1cnc2c(c1)N(Cc1cc(Cl)ccc1Cl)CCN2 (stereo not drawn)	5.00 to 6.00
2) COc1cc(C)ccc1OC[C@H](O)CNc1ccnc(O)c1-c1nc2cc3c(cc2[nH]1)C(=O)N(C1CCN(C)CC1)C3=O	4.82 to 5.30
3) COc1cc2c(cc1Nc1nc(Nc3cc(F)cc(F)c3C(N)=O)c3cc[nH]c3n1)N(C(=O)CN1CCCC1)CCC2	9.00 to 9.60
4) Cc1cc(-c2nc3[nH]nc(C)c3c(-c3ccc(N4CCNCC4)cc3)c2C#N)ccc1O	6.00 to 7.00
5) CN1CCN(c2cc(-c3cnc4c(c3)N(Cc3c(F)ccc(F)c3Cl)CCN4)ccn2)CC1	> 7.00
6) CCOC(=O)CNc1ncc(I)cc1[N+](=O)[O-]	4.00 to 5.00
7) O=C1CCCN1CCCN1C(=O)c2cc3nc(-c4c(NC[C@@H](O)c5cccc(Cl)c5)cc[nH]c4=O)[nH]c3cc2C1=O	4.82 to 5.30
8) COc1cc(C2=CCCN(C)C2)ccc1Nc1nc(Nc2ccc(F)cc2C(N)=O)c2cc[nH]c2n1	9.00 to 9.60
9) O=C(c1cnc2c(c1)N(Cc1cc(Cl)ccc1Cl)CCN2)N1CCN(Cc2ccc(Cl)cc2)CC1	5.00 to 6.00
10) COc1cc(N2CCN(CC3CC3)CC2)ccc1Nc1nc(Nc2cc(F)ccc2C(N)=O)c2cc[nH]c2n1	9.00 to 9.60

Give pIC50 (ALK tyrosine kinase receptor (Homo sapiens)) of the following compound: COc1cc(N2CCC[C@H](O)C2)ccc1Nc1nc(Nc2cc(F)ccc2C(N)=O)c2cc[nH]c2n1
8.40 to 8.90

Another: CCCN(CCC)[C@@H](C)C(=O)N1CCc2cc(OC)c(Nc3nc(Nc4cccc(F)c4C(=O)NC)c4cc[nH]c4n3)cc21
6.70 to 8.30
